# system.tested: T1, peptide used for immunization (SEQ ID NO:1), ATYPSGHLDM (human and mouse (identical sequence))
# T1 construct: Synthetic peptide; also called immunogen peptide; synthetic peptide
# T1 peptide: ATYPSGHLDM
# procedure.details: ELISA on the immunogen peptide SEQ ID NO:1
# Method: Binding of antibodies A, B, C, D, E, F, G, H, J, and K to the peptide used for immunization (SEQ ID NO:1) was tested in an ELISA assay. […] Thus, antibodies A, D, and F may therefore bind to AQP3 at a different epitope.
measured.metric: binding result

antibody B (antibody, mouse IgG2a, kappa, V domains shown, also called anti AQP3 mAb B) VH: EVQLVESGGDLVKPGGSLKLSCAASGFTFSSYGMSWVRQTPDKRLEWVATISRGSIYTYYPDSVKGRFTISRDNAKNTLYLQMSSLKSEDTAMYYCARLSLYDYDGARYTMDYWGQGTSVTVSS VL: DIVMTQSPKFMSTSVGDRVSITCKASQDVGTAVAWYQQKPGQSPKLLIYWASTRHTGVPDRFTGSGSGTDFTLTISNVQSEDLADYFCQQYSSYHTFGAGTKLELKR :: binds
